Target: Rhesus PDE2A3 (Macaca mulatta, UniProt B3VTJ2)
Construct: made in house; host or cells: AD293 cells, transient transfection; supernatant of sonicated lysate
Sequence (B3VTJ2 1-941): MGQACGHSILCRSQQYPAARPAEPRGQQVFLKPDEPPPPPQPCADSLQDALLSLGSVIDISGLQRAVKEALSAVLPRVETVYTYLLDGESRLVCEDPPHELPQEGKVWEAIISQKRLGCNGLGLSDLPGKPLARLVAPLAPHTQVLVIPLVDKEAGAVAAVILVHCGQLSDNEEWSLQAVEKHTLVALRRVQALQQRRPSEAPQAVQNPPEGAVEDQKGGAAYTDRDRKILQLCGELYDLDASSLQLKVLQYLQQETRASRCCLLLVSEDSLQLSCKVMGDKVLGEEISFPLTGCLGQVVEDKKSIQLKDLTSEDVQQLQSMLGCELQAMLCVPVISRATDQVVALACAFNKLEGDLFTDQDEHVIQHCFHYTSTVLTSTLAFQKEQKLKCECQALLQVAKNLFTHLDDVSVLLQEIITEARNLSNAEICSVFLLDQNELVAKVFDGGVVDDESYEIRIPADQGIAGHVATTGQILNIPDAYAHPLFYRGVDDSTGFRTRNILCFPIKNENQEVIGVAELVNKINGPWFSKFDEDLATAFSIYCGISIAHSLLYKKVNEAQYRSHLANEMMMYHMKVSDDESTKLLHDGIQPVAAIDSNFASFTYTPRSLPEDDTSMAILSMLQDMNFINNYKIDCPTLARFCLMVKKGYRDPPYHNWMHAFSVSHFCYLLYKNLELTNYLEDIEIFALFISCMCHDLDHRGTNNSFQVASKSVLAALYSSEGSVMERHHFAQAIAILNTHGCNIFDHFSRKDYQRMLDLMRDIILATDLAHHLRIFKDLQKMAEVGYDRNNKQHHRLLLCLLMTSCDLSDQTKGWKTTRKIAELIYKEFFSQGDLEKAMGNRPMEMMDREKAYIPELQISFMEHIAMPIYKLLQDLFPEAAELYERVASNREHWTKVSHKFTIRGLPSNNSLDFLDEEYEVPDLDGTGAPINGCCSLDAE
Test: PDE2 fluorescence polarization (IMAP FP) inhibition assay, rhesus PDE2A3
Type: biochemical, rhesus macaque
Settings: Lab B; read-out: Rhesus PDE2 Ki (nM) Lab B
quantity-kind: log10(Ki) (log10 of the value in nM)
Would you kindly interpret these values as log10 of Ki expressed in nM?

compound: Cc1nc2c(c(CO)nn2C(C)c2ccc(C(F)(F)F)cc2Cl)c(=O)[nH]1 (single isomer, unassigned)
log10(Ki): 0.28

Q: Requested read-out: log10(Ki). Entry: Cc1nc2c(c(/C=N\O)nn2C(C)c2ccc(C(F)(F)F)cc2)c(=O)[nH]1 (stereo not drawn)
A: 0.95

Q: Requested read-out: log10(Ki). Entry: Cc1nc2c(c(CC(F)(F)F)nn2C(c2ccc(C(F)(F)F)cc2)C2(C)CC2)c(=O)[nH]1 (single isomer, unassigned) [Example 58]
A: 3.03

Q: Requested read-out: log10(Ki). Entry: Cc1nc2c(c(C(F)F)nn2C(C)c2ccc(C(F)(F)F)cc2)c(=O)[nH]1 (stereo not drawn) [Example 166]
A: 0.90

Q: Requested read-out: log10(Ki). Entry: Cc1nc2c(c(CO)nn2C(C)c2ccc(C(F)(F)F)cc2)c(=O)[nH]1 (single isomer, unassigned) [Example 26]
A: 2.66

Q: Requested read-out: log10(Ki). Entry: Cc1nc2c(c(CF)nn2C(C)c2ccc(C(F)(F)F)c(F)c2)c(=O)[nH]1 (stereo not drawn)
A: 0.53

Q: Requested read-out: log10(Ki). Entry: Cc1nc2c(c(CF)nn2C(c2ccc(C(F)(F)F)c(F)c2)C2CC2)c(=O)[nH]1 (single isomer, unassigned)
A: -0.48

###

target: human PDE2A1 (Homo sapiens, UniProt O00408); construct: GST; purchased BPS Bioscience (San Diego, Calif.) 60020; host or cells: insect cells; assay: IMAP FP PDE assay, human PDE2A1; assay type: biochemical; settings: Lab B; read-out: Human PDE2 Ki (nM) Lab B
Sequence (O00408 1-920 isoform O00408-2): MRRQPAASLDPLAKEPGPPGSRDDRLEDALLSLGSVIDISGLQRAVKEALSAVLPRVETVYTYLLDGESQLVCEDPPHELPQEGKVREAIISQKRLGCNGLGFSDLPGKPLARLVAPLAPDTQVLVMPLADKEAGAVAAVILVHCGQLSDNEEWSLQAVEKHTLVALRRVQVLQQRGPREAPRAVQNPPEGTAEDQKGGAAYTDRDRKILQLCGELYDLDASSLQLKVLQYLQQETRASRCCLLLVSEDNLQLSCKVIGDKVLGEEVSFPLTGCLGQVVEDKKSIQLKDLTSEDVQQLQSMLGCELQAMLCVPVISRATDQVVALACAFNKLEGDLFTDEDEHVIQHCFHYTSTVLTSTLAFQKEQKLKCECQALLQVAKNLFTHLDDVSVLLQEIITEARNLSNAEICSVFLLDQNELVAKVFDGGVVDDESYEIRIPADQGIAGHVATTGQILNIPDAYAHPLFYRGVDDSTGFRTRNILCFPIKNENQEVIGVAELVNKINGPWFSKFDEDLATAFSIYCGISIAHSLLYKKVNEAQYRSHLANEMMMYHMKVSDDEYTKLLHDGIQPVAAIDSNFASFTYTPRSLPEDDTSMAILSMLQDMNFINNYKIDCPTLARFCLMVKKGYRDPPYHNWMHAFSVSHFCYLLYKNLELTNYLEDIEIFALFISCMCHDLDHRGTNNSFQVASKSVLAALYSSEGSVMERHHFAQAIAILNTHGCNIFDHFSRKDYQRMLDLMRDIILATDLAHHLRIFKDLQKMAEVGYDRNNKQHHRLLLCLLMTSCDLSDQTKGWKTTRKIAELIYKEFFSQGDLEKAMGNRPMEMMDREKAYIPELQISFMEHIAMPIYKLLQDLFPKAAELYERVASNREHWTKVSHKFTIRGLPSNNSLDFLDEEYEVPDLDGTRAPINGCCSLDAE
quantity-kind: Ki

Example results:
compound: Cc1nc2c(c(C(F)F)nn2C(C)c2ccc(SC(F)(F)F)cc2)c(=O)[nH]1 (single isomer, unassigned) [Example 180]
Ki: 0.55 nM
//
compound: Cc1nc2c(c(CC(F)(F)F)nn2C(C)c2ccc(OC(F)(F)F)cc2)c(=O)[nH]1 (single isomer, unassigned) [Example 66]
Ki: 327 nM
//
compound: Cc1nc2c(c(CF)nn2C(c2ccc(C(F)(F)F)c(F)c2)C2CC2)c(=O)[nH]1 (single isomer, unassigned) [Example 227]
Ki: 32 nM
//
compound: CC(c1ccc(C(F)(F)F)cc1)n1nc(C#N)c2c(=O)[nH]c(CC3CC3)nc21 (single isomer, unassigned) [Example 346]
Ki: 34 nM
//
compound: Cc1nc2c(c(CO)nn2C(C)c2ccc(C(F)(F)C(F)(F)F)cc2)c(=O)[nH]1 (single isomer, unassigned) [Example 98]
Ki: 591 nM
//
compound: Cc1nc2c(c(CO)nn2[C@@H](C)c2ccc(C(C)(C)C)cc2)c(=O)[nH]1
Ki: 1.1 nM

Q: Requested read-out: Ki. Entry: `Cc1nc2c(c(CO)nn2C(C)(C)c2ccc(C(F)(F)F)cc2)c(=O)[nH]1`
A: 60 nM

Q: Requested read-out: Ki. Entry: Cc1nc2c(c(C(C)O)nn2C(C)c2ccc(C(F)(F)F)cc2)c(=O)[nH]1 (stereo not shown)
A: 31 nM

Q: Requested read-out: Ki. Entry: Cc1nc2c(c(C(F)F)nn2C(C)c2ccc(S(F)(F)(F)(F)F)cc2)c(=O)[nH]1 (single isomer, unassigned) [Example 161]
A: 224 nM

Q: Requested read-out: Ki. Entry: Cc1nc2c(c(CF)nn2C(c2ccc(OC(F)(F)F)cc2)C2CC2)c(=O)[nH]1 (single isomer, unassigned) [Example 225]
A: 4.6 nM

Q: Requested read-out: Ki. Entry: Cc1nc2c(c(CO)nn2C(C)c2ccc(OC(F)(F)F)cc2F)c(=O)[nH]1 (single isomer, unassigned) [Example 104]
A: 162 nM

Q: Requested read-out: Ki. Entry: COc1cccc(Cc2nc3c(c(-c4nnco4)nn3C(C)c3ccc(C(F)(F)F)cc3)c(=O)[nH]2)c1 (single isomer, unassigned) [Example 345]
A: 0.15 nM

Q: Requested read-out: Ki. Entry: Cc1nc2c(c(CO)nn2C(C)c2ccc(C(F)(F)C(F)(F)F)cc2)c(=O)[nH]1 (single isomer, unassigned) [Example 99]
A: 4.5 nM

###

biological target: human PDE2A1 (Homo sapiens, UniProt O00408); construct: GST; purchased BPS Bioscience (San Diego, Calif.) 60020; host or cells: insect cells; experiment: IMAP FP PDE assay, human PDE2A1; assay type: biochemical; settings: Lab B; read-out: Human PDE2 Ki (nM) Lab B
quantity-kind: Ki (nM)
Please give a number only; it is taken to be in nM.

compound: Cc1nc2c(c(CO)nn2C(C)c2ncn(CC(F)(F)F)n2)c(=O)[nH]1 (single isomer, unassigned) [Example 148]
Ki [nM]: 671

Q: Requested read-out: Ki. Entry: Cc1nc2c(c(C(F)F)nn2C(C)c2ccc(C(F)(F)F)nc2)c(=O)[nH]1 (single isomer, unassigned) [Example 194]
A: 14

Q: Requested read-out: Ki. Entry: CC(c1ccc(C(F)(F)F)cc1)n1nc(CO)c2c(=O)[nH]c(C3CC3)nc21 (single isomer, unassigned) [Example 299]
A: 157

###

biological target: Rhesus PDE2A3 (Macaca mulatta); construct: made in house; host or cells: AD293 cells, transient transfection; supernatant of sonicated lysate; test: PDE2 fluorescence polarization (IMAP FP) inhibition assay, rhesus PDE2A3; assay type: biochemical, rhesus macaque; settings: Lab A; read-out: Rhesus PDE2 Ki (nM) Lab A
Reported values of Ki for individual entries
Please give a number only; it is taken to be in nM.

compound: Cc1nn(C(C)c2ccc(C(F)(F)F)cc2)c2nc(C(C)C)[nH]c(=O)c12 (stereo not shown)
Ki [nM]: 257
--
compound: Cc1nc2c(c(CF)nn2C(C)c2ccc(OC(F)(F)F)c(F)c2)c(=O)[nH]1 (single isomer, unassigned) [Example 217]
Ki [nM]: 0.39
--
compound: Cc1nc2c(c(CO)nn2C(C)c2ccc(C(F)(F)F)c(F)c2)c(=O)[nH]1 (single isomer, unassigned) [Example 12]
Ki [nM]: 278

Proceed to the following item.
Q: Requested read-out: Ki. Entry: Cc1nn(C(C)c2ccc(C(F)(F)F)cc2)c2nc(CCC(=O)N(C)C)[nH]c(=O)c12 (stereo not shown)
A: 275

###

molecular target: human PDE2A1 (Homo sapiens, UniProt O00408); construct: GST; purchased BPS Bioscience (San Diego, Calif.) 60020; host or cells: insect cells; assay: IMAP FP PDE assay, human PDE2A1; format: biochemical; conditions: Lab B; read-out: Human PDE2 Ki (nM) Lab B
Kindly apply the following: Satisfied if Ki is less than 200 nM, Not satisfied in every other case.

molecule: Cc1nc2c(c(CO)nn2C(C)c2ccc(C(F)(F)F)cc2F)c(=O)[nH]1 (single isomer, unassigned) [Example 16]
label: Satisfied
--
molecule: CC(=O)c1ccc(C(C)n2nc(CO)c3c(=O)[nH]c(C)nc32)cc1 (single isomer, unassigned) [Example 291]
label: Satisfied
--
molecule: Cc1nc2c(c(CO)nn2C(C)c2ccc(C3(C)CC3)cc2)c(=O)[nH]1 (single isomer, unassigned) [Example 143]
label: Satisfied
--
molecule: Cc1nc2c(c(CC(F)(F)F)nn2C(c2ccc(C(F)(F)F)c(F)c2)C2(C)CC2)c(=O)[nH]1 (single isomer, unassigned) [Example 62]
label: Not satisfied
--
molecule: Cc1nc2c(c(Br)nn2C(C)c2ccc(C(F)(F)F)cc2)c(=O)[nH]1 (single isomer, unassigned) [Example 325]
label: Satisfied

Q: Ki strictly < 200 nM for this molecule? Cc1nc2c(c(C(F)(F)CO)nn2C(C)c2ccc(C(F)(F)F)cc2)c(=O)[nH]1 (single isomer, unassigned) [Example 254]
A: Not satisfied

Q: Ki strictly < 200 nM for this molecule? Cc1ccc(C(C)n2nc(CF)c3c(=O)[nH]c(C)nc32)cc1 (stereo not shown) [Example 203]
A: Satisfied
